From: ChEMBL document CHEMBL1147812

- test target: Neuronal acetylcholine receptor; alpha4/beta2 (Rattus norvegicus, UniProt P09483+P12390)
- Sequence (P09483 whole entry): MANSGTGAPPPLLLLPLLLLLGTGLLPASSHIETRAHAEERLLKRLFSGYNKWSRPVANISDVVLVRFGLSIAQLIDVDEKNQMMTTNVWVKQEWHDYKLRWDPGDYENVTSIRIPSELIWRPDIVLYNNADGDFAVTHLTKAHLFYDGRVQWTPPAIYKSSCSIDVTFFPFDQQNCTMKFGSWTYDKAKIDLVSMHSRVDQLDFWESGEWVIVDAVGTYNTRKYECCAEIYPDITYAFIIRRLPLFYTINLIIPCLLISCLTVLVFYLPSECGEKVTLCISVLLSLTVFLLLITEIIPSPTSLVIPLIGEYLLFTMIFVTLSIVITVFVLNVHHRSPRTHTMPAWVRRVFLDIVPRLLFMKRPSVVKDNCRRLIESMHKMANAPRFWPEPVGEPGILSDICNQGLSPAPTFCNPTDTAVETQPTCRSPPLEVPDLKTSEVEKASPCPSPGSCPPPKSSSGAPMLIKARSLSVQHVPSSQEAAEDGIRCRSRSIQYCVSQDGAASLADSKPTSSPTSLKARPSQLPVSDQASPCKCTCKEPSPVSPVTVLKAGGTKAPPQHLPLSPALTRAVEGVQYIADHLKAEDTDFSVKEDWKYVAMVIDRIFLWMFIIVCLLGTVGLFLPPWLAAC
- Sequence (P12390 whole entry): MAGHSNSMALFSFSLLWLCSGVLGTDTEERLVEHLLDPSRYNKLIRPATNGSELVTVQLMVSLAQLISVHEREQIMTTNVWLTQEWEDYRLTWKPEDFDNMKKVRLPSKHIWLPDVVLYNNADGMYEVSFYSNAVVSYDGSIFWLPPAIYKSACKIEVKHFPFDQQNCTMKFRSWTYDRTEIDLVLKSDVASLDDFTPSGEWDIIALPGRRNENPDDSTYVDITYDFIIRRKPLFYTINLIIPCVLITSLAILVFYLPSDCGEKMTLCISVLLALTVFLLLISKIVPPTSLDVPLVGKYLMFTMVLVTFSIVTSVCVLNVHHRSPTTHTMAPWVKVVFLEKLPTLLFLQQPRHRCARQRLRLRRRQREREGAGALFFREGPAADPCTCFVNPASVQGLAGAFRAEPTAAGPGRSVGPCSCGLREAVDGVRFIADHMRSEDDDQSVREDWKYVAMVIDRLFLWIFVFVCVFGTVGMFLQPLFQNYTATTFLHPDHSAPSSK
- method notes: Inhibition of [3H]cytisine binding to alpha4beta2 nACHR in Wistar rat cerebral cortical membrane

[
  {
    "compound": "Clc1cncc(OC2CCCNC2)c1 (racemic)",
    "IC50 / nM": 240
  },
  {
    "compound": "C=COc1cncc(N2CCNCC2)c1",
    "IC50 / nM": 190
  },
  {
    "compound": "C/C=C\\Oc1cncc(N2CCC3CCC(C2)N3)c1 (racemic)",
    "IC50 / nM": 1.9
  },
  {
    "compound": "CCOc1cncc(N2CCC3CCC(C2)N3)c1 (racemic)",
    "IC50 / nM": 6.5
  },
  {
    "compound": "Brc1ccc(N2CCCNCCC2)cn1",
    "IC50 / nM": 0.45
  },
  {
    "compound": "Cc1ncc(N2CCNCC2)cc1Cl",
    "IC50 / nM": 520
  },
  {
    "compound": "Oc1cc(N2CCCNCC2)cnc1I",
    "IC50 / nM": 22
  },
  {
    "compound": "Clc1cc(N2CCCNCC2)cnc1Br",
    "IC50 / nM": 1.4
  },
  {
    "compound": "C/C=C\\Oc1cncc(N2CCCNCC2)c1",
    "IC50 / nM": 1.3
  },
  {
    "compound": "C=COc1cc(N2CCCNCCC2)cnc1Br",
    "IC50 / nM": 0.38
  },
  {
    "compound": "C=COc1cc(N2CCCNCC2)cnc1Br",
    "IC50 / nM": 0.64
  },
  {
    "compound": "Clc1ncc(N2CCCNCC2)cc1Br",
    "IC50 / nM": 1.4
  },
  {
    "compound": "c1cncc(N2CCCNCCC2)c1",
    "IC50 / nM": 0.9
  },
  {
    "compound": "c1ncc(N2CCCNCC2)cc1C1CC1",
    "IC50 / nM": 5.8
  },
  {
    "compound": "COc1cncc(N2C3CCNCC2CC3)c1 (racemic)",
    "IC50 / nM": 10
  },
  {
    "compound": "Brc1cncc(N2CCCNCCC2)c1",
    "IC50 / nM": 2.8
  },
  {
    "compound": "Clc1cncc(N2CCCNCCC2)c1",
    "IC50 / nM": 2
  },
  {
    "compound": "Clc1ncc(N2CCNCC2)cc1Br",
    "IC50 / nM": 230
  },
  {
    "compound": "COc1cncc(N2CCNCC2)c1",
    "IC50 / nM": 500
  },
  {
    "compound": "Brc1ccc(N2CCNCC2)cn1",
    "IC50 / nM": 180
  },
  {
    "compound": "C/C=C\\Oc1cncc(N2C3CCNCC2CC3)c1 (racemic)",
    "IC50 / nM": 3.1
  },
  {
    "compound": "C#Cc1cncc(N2CCNCC2)c1",
    "IC50 / nM": 110
  }
]
